Parameter: Ki. Scope: all listed entries.
# Assay target: T1, MMP9 catalytic domain lacking the fibronectin-like domain (MMP9CAT, residues 107-215 and 391-443) (human, UniProt P14780 107-215; P14780 391-443, conjugated to DyLight-650 for the yeast display sorting and flow cytometry)
# T1 construct: human MMP9 catalytic domain, first stretch, residues 107-215 (before the fibronectin-like domain, which is left out); human MMP9 catalytic domain, second stretch, residues 391-443 (after the fibronectin-like domain); In the functional rows the full-length MMP9 secreted by MCF-7-MMP9 cells is meant; source: gift from Irit Sagi (Weizmann Institute of Science), purified
# T1 chain (looked up): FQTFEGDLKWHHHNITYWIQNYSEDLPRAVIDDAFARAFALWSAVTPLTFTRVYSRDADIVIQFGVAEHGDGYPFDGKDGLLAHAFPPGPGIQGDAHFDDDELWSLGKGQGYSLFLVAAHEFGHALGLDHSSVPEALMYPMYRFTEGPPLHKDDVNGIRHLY
# Method: enzyme inhibition assay (fluorogenic substrate, fit to Morrison's tight binding equation); 0.0075 nM MMP14CAT or MMP9CAT (MMP1CAT, MMP10CAT: concentration not stated) incubated with 0.4-25 nM or 1.5-500 nM inhibitor for 1 h at 37 C in TCNB buffer (50 mM Tris-HCl pH 7.5, 100 mM NaCl, 5 mM CaCl2, 0.05% Brij), then 15 uM Mca-Pro-Leu-Gly-Leu-Dpa-Ala-Arg-NH2; Ki from the apparent Ki; mean of three experiments
# Test settings: both partners purified
Dear colleague, please return just the value in nM, with no unit written.

Worked cases, Ki given:
# Binder, Result
rows = [
    ("N-TIMP2_(14_17), soluble form (designed binder, limits worked out from the printed primers (forward primer encodes CSCD, reverse primer ends at YQMGCE); source: P. pastoris X33 (pPICZalphaA), secreted, purified (Ni-NTA, Superdex 75 SEC)) CSCDPVHPQQAFCNADVVIRAKAVSEKEVDSGNDLYGSPIKRIQYEIKQIKMFKGPEKDIEFIYTAPDSASCGVSLDVGGKKEYLIAGKAEGDGKMSIFLCDFIVPWDTLSTTQKKSLNHRYQMGCE", 3.58),
    ("N-TIMP2_(9_13), soluble form (designed binder, limits worked out from the printed primers (forward primer encodes CSCP, reverse primer ends at YQMGCE); source: P. pastoris X33 (pPICZalphaA), secreted, purified (Ni-NTA, Superdex 75 SEC)) CSCPPVHPQQAFCNADVVIRAKAVSEKEVDSGNDPYGWPIKRIQYEIKQIKMFKGPEKDIEFIYTAPNSAVCGVSLDVGGKKEYLIAGKAEGDGKMKIKLCDFIVPWDTLSTTQKKSLNHRYQMGCE", 1.2),
    ("N-TIMP2WT, wild type N-terminal domain of the tissue inhibitor of metalloproteinase-2, soluble form (domain or fragment, UniProt P16035 27-153, looked up, limits worked out from the printed primers (forward primer encodes CSCSP, reverse primer ends at YQMGCE); also called wild-type N-TIMP-2; source: P. pastoris X33 (pPICZalphaA), secreted, purified (Ni-NTA, Superdex 75 SEC)) CSCSPVHPQQAFCNADVVIRAKAVSEKEVDSGNDIYGNPIKRIQYEIKQIKMFKGPEKDIEFIYTAPSSAVCGVSLDVGGKKEYLIAGKAEGDGKMHITLCDFIVPWDTLSTTQKKSLNHRYQMGCE", 0.5),
    ("N-TIMP2_(9_1), soluble form (designed binder, limits worked out from the printed primers (forward primer encodes CSCP, reverse primer ends at YQMGCE); source: P. pastoris X33 (pPICZalphaA), secreted, purified (Ni-NTA, Superdex 75 SEC)) CSCPPVHPQQAFCNADVVIRAKAVSEKEVDSGNDPYGWPIKRIQYEIKQIKMFKGPEKDIEFIYTAPNSAICGVSLDVGGKKEYLIAGKAEGDGKMMIKLCDFIVPWDTLSTTQKKSLNHRYQMGCE", 0.78),
]

Prompt: Data request, read-out Ki, for N-TIMP2_(14_18), soluble form (designed binder, limits worked out from the printed primers (forward primer encodes CSCK, reverse primer ends at YQMGCE); also called N-TMP2_(14_18); source: P. pastoris X33 (pPICZalphaA), secreted, purified (Ni-NTA, Superdex 75 SEC)) CSCKPVHPQQAFCNADVVIRAKAVSEKEVDSGNDLYGFPIKRIQYEIKQIKMFKGPEKDIEFIYTAPFSAVCGVSLDVGGKKEYLIAGKAEGDGKMEITLCDFIVPWDTLSTTQKKSLNHRYQMGCE
Completion: 1.25

Values compiled from paper PMC6112833.
